Biological target: T1, human IL-33 (R&D Systems, #3625-IL-010/CF) (human, UniProt O95760 112-270)
T1 construct: also called hIL-33; huIL-33
T1 sequence (looked up): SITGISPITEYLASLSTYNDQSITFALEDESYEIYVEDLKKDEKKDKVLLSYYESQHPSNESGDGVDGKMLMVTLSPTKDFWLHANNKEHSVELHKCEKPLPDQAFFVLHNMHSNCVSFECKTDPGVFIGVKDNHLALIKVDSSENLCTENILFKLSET
Assay: SPR Biacore T200, 25 C
# kon per entry
Form entry: enter the amount, then its unit.

H4H9659P (antibody, IgG4, V domains shown, also called RG7) VH: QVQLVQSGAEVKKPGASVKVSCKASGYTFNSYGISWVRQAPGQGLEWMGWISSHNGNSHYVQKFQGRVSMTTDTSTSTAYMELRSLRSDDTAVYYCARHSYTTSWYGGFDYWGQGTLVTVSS VL: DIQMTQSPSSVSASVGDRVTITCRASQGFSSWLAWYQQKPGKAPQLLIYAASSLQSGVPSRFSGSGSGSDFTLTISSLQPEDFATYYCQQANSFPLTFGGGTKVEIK; 456000 M⁻¹ s⁻¹

Request: Need kon, item H4H9640P (antibody, IgG4, V domains shown, also called RG6) VH: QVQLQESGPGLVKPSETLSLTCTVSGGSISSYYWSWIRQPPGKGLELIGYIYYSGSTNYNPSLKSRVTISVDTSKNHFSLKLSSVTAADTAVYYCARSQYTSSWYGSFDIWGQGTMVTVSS VL: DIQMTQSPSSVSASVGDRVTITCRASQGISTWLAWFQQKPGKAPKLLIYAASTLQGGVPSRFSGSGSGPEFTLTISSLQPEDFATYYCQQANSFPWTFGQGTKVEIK
Result: 797000 M⁻¹ s⁻¹

Request: Another binder to check: H1M9566N (antibody, IgG1, V domains shown, also called RG2) VH: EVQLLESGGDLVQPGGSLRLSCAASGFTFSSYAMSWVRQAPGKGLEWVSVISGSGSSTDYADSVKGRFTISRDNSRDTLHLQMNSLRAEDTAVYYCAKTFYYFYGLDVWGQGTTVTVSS VL: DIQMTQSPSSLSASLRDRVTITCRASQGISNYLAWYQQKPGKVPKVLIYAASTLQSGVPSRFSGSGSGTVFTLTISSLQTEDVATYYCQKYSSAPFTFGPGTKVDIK
Result: 96900 M⁻¹ s⁻¹
